Test system: CEM cells HIV-1 protection, formazan growth assay
Test: NCI AIDS Antiviral Assay
Details: measured here: growth of uninfected CEM cells
I'd appreciate it if you could supply IC50 values for the items below.
Use µM as the unit, but write only the number.

So, CCC(C)C(=O)O[C@H]1C(=O)O[C@@H]2C[C@H]3C(C)=CC(=O)[C@@H](O)[C@]3(C)[C@H]3[C@@H](O)[C@H](O)[C@@]4(C)OC[C@]32[C@@H]14 (stereo not given in full) ? Its IC50 was 0.00891

Short answer for "C/C(=N/NC(=S)Nc1ccc(Cl)cc1)c1cccc(/C(C)=N\NC(=S)Nc2ccc(Cl)cc2)n1" : IC50 was 6.76

Summary for this compound, "CN(C)N=Nc1ccc(S(N)(=O)=O)cc1" : IC50 is 37.2
